method-description: H1N1 influenza NS1A inhibitors, functional cell based assay (AID 504329)
measurement-setup: percent inhibition, at 12.5 µM, hits give high values
The whole screen tested about 340,000 compounds, of which about 1,000 (0.29%) were called active. Only a sample is shown. Measured potencies and affinities stand elsewhere.
Here, each record is paired with measured inhibition data.
measured-quantity: inhibition (%)

compound=COC(=O)c1cc2cc(NS(=O)(=O)c3ccc(C)cc3)ccc2s1 numeric_result=-3.1
compound="NCC(c1ccc(Cl)cc1Cl)c1c[nH]c2ccccc12 (stereo not drawn)" numeric_result=7.89
compound=Cc1ccc(NC(=O)CSc2nc3ccccc3c(=O)[nH]2)cc1[N+](=O)[O-] numeric_result=5.04
compound=Cc1cccc(C)c1NC(=O)COC(=O)COc1ccc2c(C)cc(=O)oc2c1 numeric_result=10.5
compound=CCOc1cccc(-c2nn(-c3ccccc3)cc2/C=C(/C#N)C(=O)NCCCn2ccnc2)c1 numeric_result=6.31
compound="CC(=O)c1cccc(NC(=O)CN2C(=O)NC(C)(c3ccc4c(c3)OCCCO4)C2=O)c1 (stereo not drawn)" numeric_result=2.48
compound=CN1C(N)=NC(=O)/C1=C/c1ccc(OC(F)(F)F)cc1 numeric_result=-2.53
compound=O=C(CSc1nnc(-c2cccnc2)o1)Nc1ccccn1 numeric_result=19

Cited source: PubChem BioAssay AID504329
